We begin with a simple list: items and their reported MIC.
- System: Candida
- PROCEDURE_TEXT: Antifungal activity against Candida mycoderma after 24 hrs by two-fold serial dilution method
- Format: functional
State just the number; it will be interpreted in µg/mL.

Clc1ccc(NCc2nc3ccccc3[nH]2)cc1 | 64
CCCCCCCCCCCCN(Cc1nc2ccccc2[nH]1)c1ccc(C)cc1 | 16

Consider the record given below.
INPUT: Quick check: MIC of Cc1ccc(NCc2nc3ccccc3[nH]2)cc1 ?
OUTPUT: 256

* * *

- Tested on: Micrococcus luteus
- PROCEDURE_TEXT: Antibacterial activity against Micrococcus luteus ATCC 4698 after 24 hrs by two-fold serial dilution method
- Assay type: functional
- SETTINGS: ATCC 4698, 24 h
READOUT_KIND: MIC (µg/mL)
State just the number; it will be interpreted in µg/mL.

CCCN(Cc1nc2ccccc2[nH]1)c1ccc(C)cc1 | 128

Consider the record given below.
INPUT: Quick check: MIC of Fc1ccc(CN(Cc2nc3ccccc3[nH]2)c2ccc(Cl)cc2Cl)c(F)c1 ?
OUTPUT: 128

Values compiled from ChEMBL document CHEMBL2390927.
